B1: Azoarcus group I ribozyme (parent)
chain: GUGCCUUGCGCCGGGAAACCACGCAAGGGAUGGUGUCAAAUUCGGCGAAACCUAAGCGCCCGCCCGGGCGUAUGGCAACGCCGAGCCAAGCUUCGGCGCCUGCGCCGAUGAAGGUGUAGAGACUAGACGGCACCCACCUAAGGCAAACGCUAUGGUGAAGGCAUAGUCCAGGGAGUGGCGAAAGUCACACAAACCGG

# Variants of: B1
# assay summary: reverse-splicing fitness (ratio to wild type); higher = more active; in vitro selection; Mg2+ level not given
Please mark 1 if the recorded reverse-splicing fitness is equal to or greater than 0.007, and 0 if it falls below.

> print(dat)
                                      change  category.label
 1              C82G A111C A120U A145U C169U               0
 2       A111U A120C A145G C150G C169G U176A               1
 3                    C82A A111C A145G C169G               1
 4              C82A A111U C150A C169A U176G               1
 5       A111G A120U A145G C150A C169G U176C               0
 6              C82A A111C C150A C169A U176C               1
 7                    C82U A111G C150U U176G               1
 8  C82A A111U A120U A145U C150U C169G U176A               0
 9                    C82G A120U A145C C150A               1
10                    C82A A111U A120G A145G               1
11        C82U A120U A145U C150A C169A U176A               0
12                    C82A A120C C150A C169G               1
13  C82A A111U A120G A145U C150G C169U U176G               0
14              C82G A145U C150U C169U U176G               0
15  C82A A111G A120C A145U C150U C169U U176G               0
16                    C82A A111G A120U C169U               0
17        C82G A111C A145U C150A C169A U176C               1
18              C82G A111U C150U C169A U176G               0
19              C82U A111C A120C C150A C169G               1
20              C82U A120C A145U C169A U176C               0
21              C82G A111U A145U C150U C169A               1
22  C82G A111C A120G A145G C150G C169G U176A               1
23        C82A A120C A145U C150U C169U U176A               1
24        C82G A111C A120C C150U C169A U176G               1
25              C82U A111C A120G C150U U176G               0
26              C82U A120U A145G C150G C169U               0
27        C82G A120C A145G C150G C169A U176C               1
28              C82U A111G A120G C169A U176G               0
29              C82G A111U A120U A145C C169A               0
30              C82U A111C A145U C169G U176G               0
31                         A120G A145C C169A               1
32       A111G A120G A145C C150G C169G U176A               1
33  C82U A111U A120G A145G C150U C169A U176A               1
34              C82A A111C A120G A145G C169U               1
35        C82U A120G A145U C150G C169U U176C               1
36       A111C A120C A145U C150U C169U U176A               1
37                                C82U A111C               1
38             A120G A145U C150U C169A U176C               1
39        C82G A120C A145C C150A C169A U176C               0
40        C82A A111U A120G A145G C150U U176C               1
41             A111U A120U A145C C150U C169U               1
42             A111G A120G A145G C150U C169U               1
43                         A111C A120G C169A               1
44              C82A A111U A120U A145G C169A               0
45        C82G A111C A120G C150G C169G U176C               0
46                         A111G A145U C150U               1
47                          C82U C150U U176A               1
48  C82U A111U A120G A145C C150G C169U U176A               1
49              C82G A120C A145G C150U U176C               1
50        C82A A111C A145G C150G C169U U176G               0
51                    C82G A145U C169U U176A               1
52                                C82U C150U               1
53              C82U A120G A145U C169A U176G               0
54                    C82A A120G C169A U176C               1
55              C82U A111C A120C A145G C150A               1
56        C82G A111G A120C A145U C150U C169U               1
57       A111C A120C A145G C150A C169A U176C               1
58                    C82G A120U A145G C150G               1
59                   A111U A120G C150G U176C               1
60        C82G A111U A120G A145G C169U U176C               1
61  C82A A111C A120U A145C C150U C169U U176C               0
62                    C82G A145U C150A U176C               1
63                   A120C A145U C150A U176A               1
64  C82G A111G A120U A145G C150G C169U U176C               1
65        C82A A111U A145C C150A C169G U176A               1
66        C82A A111C A120C A145U C169A U176G               1
67                    C82U A111U A145C U176C               1
68        C82U A111U A120G A145G C169U U176G               0
69                   A111U A120C C150U U176C               1
70        C82A A111G A120U A145U C169U U176A               0
71             A111G A120G C150U C169A U176G               0
72              C82U A111U A120U A145G C169U               0
73              C82A A111U A120C C169A U176C               1
74              C82A A111C A120G A145G U176A               1
75             A111G A145G C150U C169U U176G               0
